Test system: NCI-H1734
Test: relative viability (nuclei count vs DMSO), 5 days (fraction); higher = more cells survive
Conditions: first compound 0.006325 µM
TEST_READOUT: relative viability

Solved entries:
MOLECULE	relative viability
CCNC(=O)c1noc(-c2cc(C(C)C)c(O)cc2O)c1-c1ccc(CN2CCOCC2)cc1 [Luminespib] + C[C@]1(O)C[C@@H](c2nc(-c3ccc4ccc(-c5ccccc5)nc4c3)c3c(N)nccn32)C1 [Linsitinib] (partner 1 µM)	0.792
CCNC(=O)c1noc(-c2cc(C(C)C)c(O)cc2O)c1-c1ccc(CN2CCOCC2)cc1 [Luminespib] + COc1cccc2cc(-c3nc([C@H]4CC[C@H](C(=O)O)CC4)n4ncnc(N)c34)[nH]c12 [OSI-027] (partner 0.5 µM)	0.555
CCNC(=O)c1noc(-c2cc(C(C)C)c(O)cc2O)c1-c1ccc(CN2CCOCC2)cc1 [Luminespib] + CC1(C)CCC(c2ccc(Cl)cc2)=C(CN2CCN(c3ccc(C(=O)NS(=O)(=O)c4ccc(N[C@H](CCN5CCOCC5)CSc5ccccc5)c(S(=O)(=O)C(F)(F)F)c4)cc3)CC2)C1 [Navitoclax] (partner 0.5 µM)	0.698
CCNC(=O)c1noc(-c2cc(C(C)C)c(O)cc2O)c1-c1ccc(CN2CCOCC2)cc1 [Luminespib] + CC(=O)c1c(C)c2cnc(Nc3ccc(N4CCNCC4)cn3)nc2n(C2CCCC2)c1=O [Palbociclib] (partner 0.5 µM)	0.389
CCNC(=O)c1noc(-c2cc(C(C)C)c(O)cc2O)c1-c1ccc(CN2CCOCC2)cc1 [Luminespib] + CS(=O)(=O)CCNCc1ccc(-c2ccc3ncnc(Nc4ccc(OCc5cccc(F)c5)c(Cl)c4)c3c2)o1 [Lapatinib] (partner 2 µM)	1

Now take the following molecule into account.
Q: Which relative viability reading was recorded for the molecule CCNC(=O)c1noc(-c2cc(C(C)C)c(O)cc2O)c1-c1ccc(CN2CCOCC2)cc1 [Luminespib] + COc1cc2c(Oc3ccc(NC(=O)C4(C(=O)Nc5ccc(F)cc5)CC4)cc3F)ccnc2cc1OCCCN1CCOCC1 [Foretinib] (partner 0.25 µM) ?
A: 0.915
